# method.description: Pharmacokinetic study in rats after injection
# Assay type: in vivo, Sprague–Dawley rats
# assay.conditions: male, Sprague-Dawley, rat, plasma, other: injection, 10 mg/kg, n = 12
metric: Cmax (ng/mL)

record.smiles	number
CC(=O)O[C@@]12CO[C@@H]1C[C@H](O)[C@@]1(C)C(=O)[C@H](O)C3=C(C)[C@@H](OC(=O)[C@H](O)[C@@H](NC(=O)OC(C)(C)C)c4ccccc4)C[C@@](O)([C@@H](OC(=O)c4ccccc4)[C@H]21)C3(C)C	1100
